# MIC annotations
# System: PROVIDENCIA STUARTII CMX 640

{"columns": ["structure_smiles_string", "result"],
 "data": [
  ["CC[C@H]1OC(=O)[C@H](C)C(=O)[C@H](C)[C@@H](O[C@@H]2O[C@H](C)C[C@H](N(C)C)[C@H]2O)[C@](C)(OC)C[C@@H](C)C2=NC[C@H](Cc3ccc(OCc4ccccc4)cc3)N3C(=O)O[C@@]1(C)[C@H]3[C@H]2C", "> 100 µg/mL"]
]}

Note: attention shifts to another entry.
Item `CC[C@H]1OC(=O)[C@H](C)C(=O)[C@H](C)[C@@H](O[C@@H]2O[C@H](C)C[C@H](N(C)C)[C@H]2O)[C@](C)(OC)C[C@@H](C)C2=NC[C@H](Cc3ccc(I)cc3)N3C(=O)O[C@@]1(C)[C@H]3[C@H]2C` with PROVIDENCIA STUARTII CMX 640 - MIC?
> 100 µg/mL
